B1: HDV Ribozyme (parent)
chain: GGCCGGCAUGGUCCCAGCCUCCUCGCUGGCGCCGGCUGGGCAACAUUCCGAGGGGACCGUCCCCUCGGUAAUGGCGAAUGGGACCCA

Variants of: B1
TEST_PROTOCOL: self-cleavage, relative activity (ratio to wild type); higher = more cleavage; co-transcriptional
Threshold rule: self-cleavage greater than or equal to 0.5 is yes; below that, no.

In [3]: df
Out[3]:
                              sequence_code  assigned_class
0  GGCCGGCAUGGUCCCAGCCUCCUCGCUGGCGCCGGCUGGGCAACAUUCCGAGGGGACCGUCCCCGCGGGAAUGGCGAAUGGGACCCA [U65G U69G]             yes
1  GGCCGGCAUGGUCCCAGCCUCCUCGCUGGCGCCGGCGGGGCAACAUUCCGAGGGGACCGUCCCCUAGGUAAUGGCGAAUGGGACCCA [U37G C66A]              no
2  GGCCGGCAUGGUCCCAGCCUCCUCGCUGGCGUCGGCUGGGCAACAUUCCGAGGGGACCGUCCCCUCGGUUAUGGCGAAUGGGACCCA [C32U A70U]             yes

Confirm if self-cleavage reported for the variant GGCCGGCAUGGUCCCAGCUUCCUCGCUGGCGCCGGCUGGGCAACAUUCCGAGGGGACCGUCCCCUCGGUAAUGGCGAAUGCGACCCA [C19U G81C] is 0.5 or above. no

Confirm if self-cleavage reported for the variant GGCCGGCAUGGUCCCAGCCUCCUCGCUGGCGCCGGCUGGGCAACAUUCCGACGGGACCGUCCCCUCGGUAAUGGCGAAUGGGACCGA [G52C C86G] is 0.5 or above. yes
